The reported measurements were obtained from patent US9963448B2.

biological target: hPAD4 (Homo sapiens); assay: hPAD4 RFMS (RapidFire mass spectrometry) PAD4 inhibition assay; type: biochemical; settings: hPAD4 enzyme, RFMS readout; pIC50=−log(IC50); read-out: hPAD4 RFMS pIC50 (converted);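 note: grade E means pIC50 at most 4 and F means pIC50 4.0 to 5.0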
Sequence (Q9UM07 whole entry): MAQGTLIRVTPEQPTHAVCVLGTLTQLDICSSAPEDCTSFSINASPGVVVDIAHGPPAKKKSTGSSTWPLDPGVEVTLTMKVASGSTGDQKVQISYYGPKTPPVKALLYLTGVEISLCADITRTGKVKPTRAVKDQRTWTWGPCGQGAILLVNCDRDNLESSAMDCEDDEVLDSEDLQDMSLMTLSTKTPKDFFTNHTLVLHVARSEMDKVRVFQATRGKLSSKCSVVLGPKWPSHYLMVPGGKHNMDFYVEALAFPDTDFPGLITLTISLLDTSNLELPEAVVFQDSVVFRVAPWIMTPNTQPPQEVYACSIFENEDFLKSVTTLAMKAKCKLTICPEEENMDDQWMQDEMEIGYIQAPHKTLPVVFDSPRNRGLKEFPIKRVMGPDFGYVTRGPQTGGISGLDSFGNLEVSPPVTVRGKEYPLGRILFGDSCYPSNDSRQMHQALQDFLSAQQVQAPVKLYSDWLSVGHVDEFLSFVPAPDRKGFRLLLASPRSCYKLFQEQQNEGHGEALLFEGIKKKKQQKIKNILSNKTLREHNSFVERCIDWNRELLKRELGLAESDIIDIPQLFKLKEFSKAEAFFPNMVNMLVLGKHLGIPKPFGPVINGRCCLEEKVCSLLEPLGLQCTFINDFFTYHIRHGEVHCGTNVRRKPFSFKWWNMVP
Structures can show the parent of a compound that is named as a salt.
READOUT_NAME: IC50

{"COMPOUND": "CCn1c(-c2nc3cc(C(=O)N4CCC5CCNC5C4)ccc3n2C)cc2cccnc21 (centres unmarked)", "ENDPOINT_VALUE": "1000 to 10000 nM"}
{"COMPOUND": "CCn1c(-c2nc3cc(C(=O)N4C[C@H]5CC[C@@H]4[C@@H]5N)cc(OC)c3n2C)cc2ccc(OC)nc21", "ENDPOINT_VALUE": "< 1000 nM"}
{"COMPOUND": "Cn1c(-c2cc3cccnc3n2CC2CC2)nc2cc(C(=O)N3CCC[C@@H](N)C3)cc(CO)c21", "ENDPOINT_VALUE": "1000 to 10000 nM"}
{"COMPOUND": "Cn1c(-c2cc3cccnc3n2CC2CC2)nc2cc(C(=O)N3CC[C@H]4CCN[C@H]4C3)cc(OC(F)F)c21 (single isomer, unassigned) [Compound I-25, hydrochloride]", "ENDPOINT_VALUE": "1000 to 10000 nM"}
{"COMPOUND": "CC(=O)Nc1ccnc2c1cc(-c1nc3cc(C(=O)N4CCC[C@@H](N)C4)ccc3n1C)n2CC1CC1", "ENDPOINT_VALUE": "1000 to 10000 nM"}
{"COMPOUND": "COc1cc(C(=O)N2CCC[C@@H](N)C2)cc2nc(-c3cc4ccc(C(F)(F)F)nc4n3CC3CC3)n(C)c12", "ENDPOINT_VALUE": "< 1000 nM"}
{"COMPOUND": "CCn1c(-c2nc3cc(C(=O)N4CCC[C@@H](N)C4)cc(OC)c3n2C[C@H]2C[C@@](C)(OC)C2)cc2cccnc21", "ENDPOINT_VALUE": "1000 to 10000 nM"}
{"COMPOUND": "COCCn1c(-c2nc3cc(C(=O)N4CCC[C@@H](N)C4)ccc3n2C)cc2ccc(OC)nc21", "ENDPOINT_VALUE": "1000 to 10000 nM"}
{"COMPOUND": "COc1ccc2cc(-c3nc4cc(C(=O)N5CC[C@H](OC)[C@H](N)C5)ccc4n3C)n(CC3CC3)c2n1", "ENDPOINT_VALUE": "< 1000 nM"}
{"COMPOUND": "COc1cc(C(=O)N2C[C@H]3CCC2[C@H]3N)cc2nc(-c3cc4cc(/C=C/c5ccccc5)ccc4n3CC3CC3)n(C)c12", "ENDPOINT_VALUE": "< 1000 nM"}

Prompt: Give reported IC50 value for `CCn1c(-c2nc3cc(C(=O)N4CCC[C@@H](N)C4)cc(OC)c3n2CC2CC(F)(F)C2)cc2cccnc21`
Response: 1000 to 10000 nM

Prompt: Hello, please tell me recorded IC50 for this one: COc1cc(C(=O)N2C[C@@H](N)CC[C@H]2CO)cc2nc(-c3cc4cccnc4n3CC3CC3)n(C)c12 (single isomer, unassigned)
Response: 10000 to 100000 nM

Prompt: Please report IC50 for the following compound: `CCn1c(-c2nc3cc(C(=O)N4C[C@H]5CC[C@@H]4[C@@H]5N)cc(OC)c3n2CC2CC(F)(F)C2)cc2cccnc21`
Response: < 1000 nM

Prompt: Note IC50 for the compound shown: `COc1cc(C(=O)N2C[C@H]3CCC2[C@H]3N)cc2nc(-c3cc4ccc(/C=C/CC(C)C)cc4n3CC3CC3)n(C)c12`
Response: < 1000 nM

Prompt: Tell me IC50 reported for `COc1cc(C(=O)N2CCC[C@@H](N)C2)cc2nc(-c3cc4cc(C#N)cnc4n3CC3CC3)n(C)c12`
Response: < 1000 nM
